MEASURED_TARGET: furin, P09958;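 note: purified furin at 1:10 enzyme:substrate in 50 mM HEPES pH 7.5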
Sequence (P09958 whole entry): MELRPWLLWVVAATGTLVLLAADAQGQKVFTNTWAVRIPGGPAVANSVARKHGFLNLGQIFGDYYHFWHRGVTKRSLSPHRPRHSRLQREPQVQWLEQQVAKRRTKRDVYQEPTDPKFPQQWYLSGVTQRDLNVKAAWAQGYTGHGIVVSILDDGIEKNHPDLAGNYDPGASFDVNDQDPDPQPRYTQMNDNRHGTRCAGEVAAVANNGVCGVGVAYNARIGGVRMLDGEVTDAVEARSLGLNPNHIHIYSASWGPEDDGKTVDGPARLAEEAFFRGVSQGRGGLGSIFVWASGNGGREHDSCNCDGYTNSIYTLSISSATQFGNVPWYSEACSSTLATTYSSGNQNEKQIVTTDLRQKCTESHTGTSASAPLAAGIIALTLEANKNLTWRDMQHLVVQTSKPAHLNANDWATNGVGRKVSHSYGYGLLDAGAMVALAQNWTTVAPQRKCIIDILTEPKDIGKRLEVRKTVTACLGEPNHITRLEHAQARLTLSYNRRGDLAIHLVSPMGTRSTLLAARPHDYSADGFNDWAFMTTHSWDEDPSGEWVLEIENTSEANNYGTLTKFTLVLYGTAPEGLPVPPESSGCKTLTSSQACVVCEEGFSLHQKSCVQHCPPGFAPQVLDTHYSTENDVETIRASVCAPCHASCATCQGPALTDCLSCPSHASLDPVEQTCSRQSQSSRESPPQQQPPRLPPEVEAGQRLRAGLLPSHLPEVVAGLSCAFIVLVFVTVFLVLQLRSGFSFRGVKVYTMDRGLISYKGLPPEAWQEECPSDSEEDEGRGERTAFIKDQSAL
PROTOCOL: furin cleavage Z-score vs untreated control; higher = more cleavage, active = 3.5 or more, inactive = 1 or less, 8 variable residues between constant flanks
MEASUREMENT_SETUP: 30 min
The list shows a part of the results. The true hit rate is not given.
Possible outcomes: yes = active, no = inactive

• CAAKRRFRRQAGNASASA [FS-521] = yes
• CAVVLLFLLLAGNASASA [HC520] = no
• CAGNASRCWVAGNASASA [HC277] = no
• CAKSNRFRRQAGNASASA [FS-453] = yes
